Test system: foxtail meadow
assayName: Upland foliar application test (Test 3)
Assay type: in vivo
runParameters: 30 g ai/a, foliar spray at 2-3 leaves, 30th day
readoutKind: Herbicidal effects Foxtail meadow

Identify measured Herbicidal effects Foxtail meadow associated with COc1cc(OC)nc(Oc2ccccc2C=NOC(C)c2ccccc2)n1 (stereo not drawn)
3 (11-40 (Medium damages))

Kindly indicate its recorded Herbicidal effects Foxtail meadow. Item: `CON=Cc1ccccc1Oc1nc(OC)cc(OC)n1`
5 (0-5 (Death))

Consider the compound `COc1cc(OC)nc(Oc2ccccc2C=NOCc2ccc(Cl)cc2Cl)n1` and give its recorded Herbicidal effects Foxtail meadow.
3 (11-40 (Medium damages))

For `COc1cc(OC)nc(Oc2ccccc2C=NOCC=Cc2ccccc2Cl)n1` , write its Herbicidal effects Foxtail meadow.
5 (0-5 (Death))

State its Herbicidal effects Foxtail meadow: `COc1cc(OC)nc(Oc2ccccc2C=NOCc2ccccc2Cl)n1`
3 (11-40 (Medium damages))

Return Herbicidal effects Foxtail meadow (reported value) for this compound: `COc1cc(OC)nc(Oc2ccccc2C=NOCCc2ccccc2)n1`
4 (6-10 (Severe damages))

Please give the documented Herbicidal effects Foxtail meadow of `CC=CCON=Cc1ccccc1Oc1nc(OC)cc(OC)n1`
5 (0-5 (Death))

Kindly indicate its recorded Herbicidal effects Foxtail meadow. Item: `CC#CCON=Cc1ccccc1Oc1nc(OC)cc(OC)n1`
4 (6-10 (Severe damages))

Provide measured Herbicidal effects Foxtail meadow value, entry: `COc1cc(OC)nc(Oc2ccccc2C=NOCC=Cc2ccc(Cl)c(Cl)c2)n1`
4 (6-10 (Severe damages))
